# target-system: CDK2/Cyclin A (Homo sapiens)
# Construct: purchased Invitrogen PV6290
# assay-text: Enzymatic assay for CDK2 (FRET based LANCE Ultra kinase assay)
# Type: biochemical
# conditions: read-out: CDK2 enzymatic activity (IC50 range)
pIC50: −log10 of the molar value.
measure-name: pIC50

In [3]: df
Out[3]:
                            chemical_string  measure_name     obs_value
0  CC(C)c1cnn2c(N[C@@H](C)c3ccccc3-n3cc4ccccc4n3)nc(N3CCC(N)CC3)nc12         pIC50        < 6.00
1  CC(C)c1cnn2c(NCc3c(Cl)cccc3-c3cccc(C(C)(C)O)n3)nc(N3CCC(N)CC3)nc12         pIC50        < 6.00
2  CC(C)c1cnn2c(NCc3cccc4ccc(NC(=O)CCCN(C)C)nc34)nc(N3CCC(N)CC3)nc12         pIC50  6.00 to 7.00
3  CC(C)c1cnn2c(NCc3c(Cl)cccc3-n3ccc(C(=O)N4CCOCC4)n3)nc(N3CCC(N)CC3)nc12         pIC50        < 6.00
4  Cc1cccc(-n2ccc(C(C)(C)O)n2)c1CNc1nc(NCC2CCNCC2)nc2c(C(C)C)cnn12         pIC50        < 6.00
5  CC(C)c1cnn2c(NCc3c(-n4cccn4)cccc3C(F)(F)F)nc(N3CCC(N)CC3)nc12         pIC50        < 6.00
6  CC(C)c1cnn2c(NCc3cccc(N4CCN(C)CC4)c3)nc(N3CCC(N)CC3)nc12         pIC50  6.00 to 7.00

* * *

# target-system: CDK1/Cyclin B (Homo sapiens)
# Construct: purchased Invitrogen PR4768C
# Sequence (P06493 whole entry): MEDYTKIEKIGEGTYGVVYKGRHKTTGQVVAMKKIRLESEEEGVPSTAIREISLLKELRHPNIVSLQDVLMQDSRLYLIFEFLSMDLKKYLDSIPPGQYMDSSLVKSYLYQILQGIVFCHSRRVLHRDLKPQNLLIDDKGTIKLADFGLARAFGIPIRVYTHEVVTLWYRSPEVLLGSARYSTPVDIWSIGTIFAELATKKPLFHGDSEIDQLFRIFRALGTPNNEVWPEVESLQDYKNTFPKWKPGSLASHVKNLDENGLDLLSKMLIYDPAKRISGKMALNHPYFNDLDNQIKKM
# Sequence (P14635 whole entry partner): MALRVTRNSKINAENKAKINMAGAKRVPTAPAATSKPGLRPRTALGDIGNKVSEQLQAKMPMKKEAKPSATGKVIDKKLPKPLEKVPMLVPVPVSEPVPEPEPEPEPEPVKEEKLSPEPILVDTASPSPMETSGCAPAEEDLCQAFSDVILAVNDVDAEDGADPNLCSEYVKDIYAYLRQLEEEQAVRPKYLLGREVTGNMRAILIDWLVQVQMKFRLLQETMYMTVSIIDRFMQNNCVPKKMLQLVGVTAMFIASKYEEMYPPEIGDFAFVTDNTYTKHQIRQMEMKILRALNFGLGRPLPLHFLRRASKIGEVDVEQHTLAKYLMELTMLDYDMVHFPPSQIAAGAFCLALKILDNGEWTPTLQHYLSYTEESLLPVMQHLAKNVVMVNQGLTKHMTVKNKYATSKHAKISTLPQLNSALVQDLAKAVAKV
# assay-text: Enzymatic assay for CDK1 (FRET based LANCE Ultra kinase assay)
# Assay type: biochemical
# conditions: read-out: CDK1 enzymatic activity (IC50 range)
measure-name: IC50

>>> print(df.to_string())
                             chemical_string                 target_system  measure_name       obs_value
 0  CC(C)c1cnn2c(NCc3ccccc3-n3cccn3)cc(N3CCC(N)CC3)nc12  CDK1/Cyclin B (Homo sapiens)          IC50       > 1000 nM
 1  CC(C)c1cnn2c(NCc3ccccc3-n3cccn3)nc(-c3ccc(C(=O)N4CCC(N)CC4)cc3)nc12  CDK1/Cyclin B (Homo sapiens)          IC50       > 1000 nM
 2  CC(C)c1cnn2c(NCc3c(Cl)cccc3-n3cccn3)nc(N3CCC(N)CC3)nc12  CDK1/Cyclin B (Homo sapiens)          IC50       > 1000 nM
 3  CC(C)c1cnn2c(NCc3c(Cl)cccc3-c3cccc(C(C)(C)O)n3)nc(N3CCC(N)CC3)nc12  CDK1/Cyclin B (Homo sapiens)          IC50       > 1000 nM
 4  CC(C)c1cnn2c(NCc3ccccc3-c3ccc4ccccc4n3)nc(NC[C@H]3CCNC[C@@H]3O)nc12  CDK1/Cyclin B (Homo sapiens)          IC50       > 1000 nM
 5  CC(C)c1cnn2c(NCc3ccccc3-n3cc4ccccc4n3)nc(N3CCC(N)CC3)nc12  CDK1/Cyclin B (Homo sapiens)          IC50  100 to 1000 nM
 6  CC(C)c1cnn2c(NCc3c(F)cccc3-n3cccn3)nc(N3CCC(N)CC3)nc12  CDK1/Cyclin B (Homo sapiens)          IC50       > 1000 nM
 7  CC(C)c1cnn2c(NCc3cccc4ccc(N)nc34)nc(N3CCC(N)CC3)nc12  CDK1/Cyclin B (Homo sapiens)          IC50       > 1000 nM
 8  CC(C)c1cnn2c(NCc3ccccc3-c3nccc4c(NC(=O)CCCN(C)C)cccc34)nc(N3CCC(N)CC3)nc12  CDK1/Cyclin B (Homo sapiens)          IC50       > 1000 nM
 9  CC(C)C(=O)N1CCc2nn(-c3ccccc3CNc3nc(N4CCC(N)CC4)nc4c(C(C)C)cnn34)cc2C1  CDK1/Cyclin B (Homo sapiens)          IC50       > 1000 nM
10  CC(C)c1cnn2c(NCc3ccccc3-n3ccc(-c4ccccc4)n3)nc(N3CCC(N)CC3)nc12  CDK1/Cyclin B (Homo sapiens)          IC50       > 1000 nM
11  CC(C)c1cnn2c(NCc3ccccc3-n3cc(C(=O)N4CCN(C)CC4)cn3)nc(N3CCC(N)CC3)nc12  CDK1/Cyclin B (Homo sapiens)          IC50       > 1000 nM
12  CNC(=O)c1ccccc1CNc1nc(N2CCC(N)CC2)nc2c(C(C)C)cnn12  CDK1/Cyclin B (Homo sapiens)          IC50       > 1000 nM
13  CC(C)c1cnn2c(NCc3ccccc3-c3cc4cccc(NC(=O)N(C)C)c4[nH]3)nc(N3CCC(N)CC3)nc12  CDK1/Cyclin B (Homo sapiens)          IC50  100 to 1000 nM
14  CC(C)c1cnn2c(NCc3ccccc3-c3ccc4ccccc4n3)cc(NCC3(O)CCNCC3)nc12  CDK1/Cyclin B (Homo sapiens)          IC50  100 to 1000 nM

* * *

This listing pairs compounds with measured pIC50.
# target-system: CDK2/Cyclin A (Homo sapiens)
# Construct: purchased Invitrogen PV6290
# assay-text: Enzymatic assay for CDK2 (FRET based LANCE Ultra kinase assay)
# Type: biochemical
# conditions: read-out: CDK2 enzymatic activity (IC50 range)
pIC50: −log10 of the molar value.
measure-name: pIC50

>>> print(df.to_string())
                                    compound  measure_name     obs_value
 0  CC(C)c1cnn2c(NCc3ccccc3NC(=O)c3cccc(NC(=O)CCCN(C)C)c3)nc(N3CCC(N)CC3)nc12         pIC50        < 6.00
 1  CC(C)c1cnn2c(NCc3c(Cl)cccc3-n3cccn3)nc(N3CCC(N)CC3)nc12         pIC50        < 6.00
 2  CC(C)c1cnn2c(NCc3c(Cl)cccc3-n3ccc(C(C)(C)O)n3)nc(N3CCC(O)(CN)CC3)nc12         pIC50        < 6.00
 3  CC(C)c1cnn2c(NCc3ccccc3-c3cc4ccccc4[nH]3)nc(N3CCC(N)CC3)nc12         pIC50  6.00 to 7.00
 4  CC(C)(C)c1cnn2c(NCc3ccccc3-n3cccn3)nc(N3CCC(N)CC3)nc12         pIC50  6.00 to 7.00
 5  CC(C)c1cnn2c(NCc3ccccc3-n3ccc(C(C)(C)O)n3)nc(N3CCC(N)CC3)nc12         pIC50  6.00 to 7.00
 6  CC(C)c1cnn2c(NCc3ccccc3-c3ccc4cc(C(C)(C)O)ccc4n3)nc(N3CCC(O)(CN)CC3)nc12         pIC50        < 6.00
 7  CC(C)c1cnn2c(NCc3ccccc3-n3ccc(C(C)(C)O)n3)nc(NCC3CCNCC3O)nc12 (centres unmarked)         pIC50        < 6.00
 8  CC(C)c1cnn2c(NCc3c(Cl)cccc3N3CCOCC3)nc(N3CCC(N)CC3)nc12         pIC50        < 6.00
 9  CC(C)c1cnn2c(NCc3ccccc3-n3ccc(C(=O)NC4CCOCC4)n3)nc(N3CCC(N)CC3)nc12         pIC50  6.00 to 7.00
10  CC(C)c1cnn2c(N[C@H](C)c3ccccc3-c3cc4ccccc4[nH]3)nc(N3CCC(N)CC3)nc12         pIC50        < 6.00

* * *

Examples of molecules with documented IC50 follow.
# target-system: CDK7/Cyclin H/MNAT1 (Homo sapiens)
# Construct: purchased Invitrogen PR6749B
# Sequence (P50613 whole entry): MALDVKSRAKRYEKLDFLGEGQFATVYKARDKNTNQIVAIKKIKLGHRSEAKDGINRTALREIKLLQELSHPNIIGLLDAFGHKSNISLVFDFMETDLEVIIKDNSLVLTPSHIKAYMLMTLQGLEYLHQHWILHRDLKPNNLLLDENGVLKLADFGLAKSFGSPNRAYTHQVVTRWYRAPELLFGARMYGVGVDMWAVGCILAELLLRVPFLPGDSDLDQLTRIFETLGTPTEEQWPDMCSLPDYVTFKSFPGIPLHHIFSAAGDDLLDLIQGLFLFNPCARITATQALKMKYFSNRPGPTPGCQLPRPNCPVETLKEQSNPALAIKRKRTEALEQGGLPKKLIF
# Sequence (P51946 whole entry partner): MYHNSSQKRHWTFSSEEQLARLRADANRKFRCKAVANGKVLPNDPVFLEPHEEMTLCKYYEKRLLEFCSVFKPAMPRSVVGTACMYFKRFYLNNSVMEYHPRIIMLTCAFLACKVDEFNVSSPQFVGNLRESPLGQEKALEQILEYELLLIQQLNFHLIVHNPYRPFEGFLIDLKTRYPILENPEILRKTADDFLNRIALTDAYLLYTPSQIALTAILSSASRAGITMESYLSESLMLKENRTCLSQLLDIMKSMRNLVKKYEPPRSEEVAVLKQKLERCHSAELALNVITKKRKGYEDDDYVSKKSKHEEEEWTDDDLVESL
# Sequence (P51948 whole entry partner): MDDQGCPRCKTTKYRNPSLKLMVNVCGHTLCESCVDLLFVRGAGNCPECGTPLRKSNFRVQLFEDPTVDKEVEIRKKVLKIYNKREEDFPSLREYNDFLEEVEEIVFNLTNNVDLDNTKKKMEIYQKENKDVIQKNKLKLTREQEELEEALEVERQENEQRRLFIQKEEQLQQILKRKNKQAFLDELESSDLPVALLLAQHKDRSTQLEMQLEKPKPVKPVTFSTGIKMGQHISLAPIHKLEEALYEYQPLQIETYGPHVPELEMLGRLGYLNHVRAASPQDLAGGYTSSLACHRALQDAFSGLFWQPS
# assay-text: Enzymatic assay for CDK7 (FRET based LANCE Ultra kinase assay)
# Format: biochemical
# conditions: read-out: CDK7 enzymatic activity (IC50 activity range)
measure-name: IC50

>>> df
                                    molecule                       target_system  measure_name    obs_value
 0  CC(C)c1cnn2c(NCc3ccccc3-c3ccc4ccccc4n3)nc(N3CCCC[C@H]3CCO)nc12  CDK7/Cyclin H/MNAT1 (Homo sapiens)          IC50  0.1 to 1 µM
 1  CC(C)c1cnn2c(NCc3c(Cl)cccc3-n3ccc(C(C)(C)O)n3)nc(N3CCC(F)(CN)CC3)nc12  CDK7/Cyclin H/MNAT1 (Homo sapiens)          IC50     < 0.1 µM
 2  CC(C)c1cnn2c(NCc3c(Cl)cccc3-c3ccc4ccccc4n3)nc(N3CCCC[C@H]3CCO)nc12  CDK7/Cyclin H/MNAT1 (Homo sapiens)          IC50  0.1 to 1 µM
 3  Cc1cccc(-c2cc(C(C)(C)O)n(C)n2)c1CNc1nc(N2CCC(N)CC2)nc2c(C(C)C)cnn12  CDK7/Cyclin H/MNAT1 (Homo sapiens)          IC50     < 0.1 µM
 4  CC(C)c1cnn2c(NCc3c(Cl)cccc3-c3cc(C(C)(C)O)nn3C)nc(N3CCC(N)CC3)nc12  CDK7/Cyclin H/MNAT1 (Homo sapiens)          IC50     < 0.1 µM
 5  CC(C)c1cnn2c(NCc3c(Cl)cccc3-n3ccc(C(C)(C)O)n3)nc(Nc3cccc4[nH]ccc34)nc12  CDK7/Cyclin H/MNAT1 (Homo sapiens)          IC50       > 1 µM
 6  CC(C)c1cnn2c(NCc3ccccc3-c3ccc4ccccc4n3)nc(O[C@H]3CC[C@H](O)CC3)nc12  CDK7/Cyclin H/MNAT1 (Homo sapiens)          IC50     < 0.1 µM
 7  CC(C)c1cnn2c(NCc3ccccc3-c3cc4ccccc4[nH]3)nc(NCC3CNCCO3)nc12 (racemic)  CDK7/Cyclin H/MNAT1 (Homo sapiens)          IC50     < 0.1 µM
 8  CC(C)c1cnn2c(NCc3ccccc3-c3nccc4cc(NC(=O)CCCN(C)C)ccc34)nc(NC[C@H]3CCNC[C@@H]3O)nc12  CDK7/Cyclin H/MNAT1 (Homo sapiens)          IC50     < 0.1 µM
 9  Cc1cn(-c2cccc(Cl)c2CNc2nc(N3CCC(N)CC3)nc3c(C(C)C)cnn23)nc1C(C)(C)O  CDK7/Cyclin H/MNAT1 (Homo sapiens)          IC50     < 0.1 µM
10  CC(C)c1cnn2c(NCc3cccc4ccc(C(C)(C)O)nc34)nc(N3CCC(N)CC3)nc12  CDK7/Cyclin H/MNAT1 (Homo sapiens)          IC50     < 0.1 µM
11  CCN1CC[C@H](CNc2nc(NCc3ccccc3-c3ccc4ccccc4n3)n3ncc(C(C)C)c3n2)[C@@H](O)C1  CDK7/Cyclin H/MNAT1 (Homo sapiens)          IC50     < 0.1 µM
12  CC(C)c1cnn2c(NCc3ccccc3-c3ccc4ccccc4n3)nc(OC3CCC(O)CC3)nc12 (stereo not drawn)  CDK7/Cyclin H/MNAT1 (Homo sapiens)          IC50     < 0.1 µM
13  CC(C)c1cnn2c(NCc3c(Cl)cccc3N3CC[C@H](C(C)(C)O)C3)nc(N3CCC(N)CC3)nc12  CDK7/Cyclin H/MNAT1 (Homo sapiens)          IC50     < 0.1 µM
14  CCC(O)(CC)c1ccn(-c2cccc(Cl)c2CNc2nc(N3CCC(N)CC3)nc3c(C(C)C)cnn23)n1  CDK7/Cyclin H/MNAT1 (Homo sapiens)          IC50  0.1 to 1 µM

Source of measurements: patent US11945822B2
